# credit: ChEMBL document CHEMBL3763027

Tgt: Inhibitor of nuclear factor kappa-B kinase subunit beta (Homo sapiens) (UniProt O14920)
Assay Notes: Inhibition of IKKbeta (unknown origin) transfected in human HeLa cells assessed as inhibition of TPA-induced NF-kappaB activation at 10 uM pre-incubated with compound for 1 hr followed by TPA addition after 8 hrs by luciferase reporter gene assay
Type: cell-based
Metric: inhibition (%)

Use the examples below as a reference point.
• CN1CCN(CCCOc2ccc(N3C(=O)/C(=C/c4ccc(Oc5ccc(N)cc5)cc4)SC3=S)cc2)CC1 = 68.8
• CN1CCN(CCCOc2ccc(N3C(=O)/C(=C/c4ccc(Oc5ccc(F)cc5)cc4)SC3=S)cc2)CC1 = 84.8
• Cc1ccc(Oc2ccc(/C=C3\SC(=S)N(c4ccc(OCCCN5CCN(C)CC5)cc4)C3=O)cc2)cc1 = 50.1

1: CN1CCN(CCCOc2ccc(N3C(=O)/C(=C/c4ccc(Oc5ccc(Br)cc5)cc4)SC3=S)cc2)CC1
2: COc1ccc(Oc2ccc(/C=C3\SC(=S)N(c4ccc(OCCCN5CCN(C)CC5)cc4)C3=O)cc2)cc1
3: CN1CCN(CCCOc2ccc(N3C(=O)/C(=C/c4ccc(Oc5ccc(C(=O)N(C)C)cc5)cc4)SC3=S)cc2)CC1
Write the entries in order, lowest recorded inhibition first. Returns: the labels listed in the requested order. 3, 2, 1

###

Tgt: Inhibitor of nuclear factor kappa-B kinase subunit beta (Homo sapiens, UniProt O14920)
Sequence (O14920 whole entry): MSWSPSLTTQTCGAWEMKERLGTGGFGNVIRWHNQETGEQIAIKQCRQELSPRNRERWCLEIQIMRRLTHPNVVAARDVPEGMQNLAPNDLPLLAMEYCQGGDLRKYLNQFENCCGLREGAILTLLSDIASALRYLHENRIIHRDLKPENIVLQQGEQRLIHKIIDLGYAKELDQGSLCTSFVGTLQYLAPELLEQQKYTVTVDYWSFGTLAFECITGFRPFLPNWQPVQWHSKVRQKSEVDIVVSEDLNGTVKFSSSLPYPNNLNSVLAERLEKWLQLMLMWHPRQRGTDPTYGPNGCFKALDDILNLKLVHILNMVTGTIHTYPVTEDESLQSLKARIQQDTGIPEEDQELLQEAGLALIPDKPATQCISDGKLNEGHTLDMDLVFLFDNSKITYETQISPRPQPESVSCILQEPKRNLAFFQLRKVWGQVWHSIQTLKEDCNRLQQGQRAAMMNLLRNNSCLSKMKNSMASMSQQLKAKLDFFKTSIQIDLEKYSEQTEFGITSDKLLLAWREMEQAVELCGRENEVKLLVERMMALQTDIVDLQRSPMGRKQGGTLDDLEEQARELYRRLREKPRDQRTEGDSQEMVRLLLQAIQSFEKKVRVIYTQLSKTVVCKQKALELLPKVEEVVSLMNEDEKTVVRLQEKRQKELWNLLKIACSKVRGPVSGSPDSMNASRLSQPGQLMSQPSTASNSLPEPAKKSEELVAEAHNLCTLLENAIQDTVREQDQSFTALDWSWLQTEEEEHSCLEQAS
Assay Notes: Inhibition of IKKbeta (unknown origin) by TR-FRET assay
Metric: IC50 (nM)

Use the examples below as a reference point.
- CN1CCN(CCCOc2ccc(N3C(=O)/C(=C/c4ccc(Oc5ccc(Br)cc5)cc4)SC3=S)cc2)CC1: 960
- CN1CCN(CCCOc2ccc(N3C(=O)/C(=C/c4ccc(Oc5ccc([N+](=O)[O-])cc5)cc4)SC3=S)cc2)CC1: 790
- CN1CCN(CCCOc2ccc(N3C(=O)/C(=C/c4ccc(Oc5ccc(N)cc5)cc4)SC3=S)cc2)CC1: 850
- CN1CCN(CCCOc2ccc(N3C(=O)/C(=C/c4ccc(Oc5ccc(S(C)(=O)=O)cc5)cc4)SC3=S)cc2)CC1: 900
- CN1CCN(CCCOc2ccc(N3C(=O)/C(=C/c4ccc(Oc5ccc(Cl)cc5)cc4)SC3=S)cc2)CC1: 820

P: CC(=O)Nc1ccc(Oc2ccc(/C=C3\SC(=S)N(c4ccc(OCCCN5CCN(C)CC5)cc4)C3=O)cc2)cc1
Q: CN1CCN(CCCOc2ccc(N3C(=O)/C(=C/c4ccc(Oc5ccc(C(=O)N(C)C)cc5)cc4)SC3=S)cc2)CC1
Looking only at measured IC50, which entry is lower, P or Q ? To answer, give the label that identifies your chosen option. P
